# TEST_SUMMARY: Aqueous solubility at pH 7.4
# Format: physicochemical
# STATED_CONDITIONS: aqueous medium
METRIC: solubility (µg/mL)
Give bare numbers, in µg/mL.

For O[C@@H](CN1c2cccc(-c3cccc(OC(F)(F)F)c3)c2OC[C@@H]1c1cccc(OC(F)(F)C(F)F)c1)C(F)(F)F , what is its reported solubility?
2.7

====

# TEST_SUMMARY: Oral bioavailability in rat at 10 mg/kg
# Type: ADME, organism-based
# STATED_CONDITIONS: in vivo
METRIC: bioavailability (%)
Numbers only, in %.

State the recorded bioavailability for this entry: O[C@@H](CN1c2cccc(-c3cccc(OC(F)(F)F)c3)c2OC[C@@H]1c1cccc(OC(F)(F)C(F)F)c1)C(F)(F)F
53

====

# ASSAY_SYSTEM: Cholesteryl ester transfer protein (Homo sapiens)
# TEST_SUMMARY: Inhibition of human cholesteryl ester transfer protein by scintillation proximity assay
METRIC: pIC50
Answers are plain numbers, as −log10 of the molar value.

Completed entries (count: 5):
O[C@@H](CN1c2cccc(-c3cccc(OC(F)(F)F)c3)c2OC[C@@H]1c1cccc(OC(F)(F)F)c1)C(F)(F)F: 6.88
OC(CN1c2cccc(-c3cccc(OC(F)(F)F)c3)c2OCC1c1cccc(OC(F)(F)F)c1)C(F)(F)F (mixture of isomers): 6.97
C[C@H](O)CN1c2cccc(-c3cccc(OC(F)(F)F)c3)c2OC[C@@H]1c1cccc(OC(F)(F)C(F)F)c1: 7.06
OC(CN1c2cccc(-c3cccc(OC(F)(F)F)c3)c2OCC1c1cccc(OC(F)(F)C(F)F)c1)C(F)(F)F (mixture of isomers): 7.35
CC(C)C(O)CN1c2cccc(-c3cccc(OC(F)(F)F)c3)c2OCC1c1cccc(OC(F)(F)C(F)F)c1 (mixture of isomers): 6.89

# input for lookup
Looking for the measured pIC50 of OC(CN1c2cccc(-c3cccc(OC(F)(F)F)c3)c2OCC1c1ccc2c(c1)OC(F)(F)O2)C(F)(F)F (mixture of isomers) , can you help?
6.57

====

# ASSAY_SYSTEM: UniProtKB P11597
# TEST_SUMMARY: Inhibition of human cholesteryl ester transfer protein at 1 uM by scintillation proximity assay
Short version: inhibition at least 20% is fulfilled, less is not fulfilled.

Previously resolved entries follow.
NCCN1c2cccc(-c3cccc(OC(F)(F)F)c3)c2OCC1c1cccc(OC(F)(F)C(F)F)c1 (racemic): not fulfilled
OC[C@@H](O)CN1c2cccc(-c3cccc(OC(F)(F)F)c3)c2OC[C@@H]1c1cccc(OC(F)(F)C(F)F)c1: fulfilled
OC(CN1c2cccc(-c3cccc(OC(F)(F)F)c3)c2OCC1c1ccc2c(c1)OC(F)(F)O2)C(F)(F)F (mixture of isomers): fulfilled
COC(=O)N1c2cccc(-c3cccc(OC(F)(F)F)c3)c2OCC1c1cccc(OC(F)(F)C(F)F)c1 (racemic): not fulfilled
O=C(CN1c2cccc(-c3cccc(OC(F)(F)F)c3)c2OC[C@@H]1c1cccc(OC(F)(F)C(F)F)c1)C(F)(F)F: not fulfilled
COCCN1c2cccc(-c3cccc(OC(F)(F)F)c3)c2OCC1c1cccc(OC(F)(F)C(F)F)c1 (racemic): fulfilled

Entry OCCN1c2cccc(-c3cccc(OC(F)(F)F)c3)c2OCC1c1cccc(OC(F)(F)C(F)F)c1 (racemic) : is its inhibition no less than 20%?
fulfilled

Same for O[C@@H](CF)CN1c2cccc(-c3cccc(OC(F)(F)F)c3)c2OC[C@@H]1c1cccc(OC(F)(F)C(F)F)c1
fulfilled

====

# TEST_SUMMARY: AUC in rat at 10 mg/kg, po and 2 mg/kg, iv
# Type: ADME, organism-based
# STATED_CONDITIONS: plasma
METRIC: AUC (ng·h/mL)
Numbers only, in ng·h/mL.

Given O[C@@H](CN1c2cccc(-c3cccc(OC(F)(F)F)c3)c2OC[C@@H]1c1cccc(OC(F)(F)C(F)F)c1)C(F)(F)F , state its recorded AUC.
19800

====

# ASSAY_SYSTEM: Cholesteryl ester transfer protein (Homo sapiens) (UniProt P11597)
# TEST_SUMMARY: Inhibition of human cholesteryl ester transfer protein at 1 uM by scintillation proximity assay
Binary classification by inhibition, with 30% as an inclusive lower bound for Yes; all other cases are No.

O[C@@H](CN1c2cccc(-c3cc(F)c(F)c(F)c3)c2OC[C@@H]1c1cccc(OC(F)(F)C(F)F)c1)C(F)(F)F: Yes
CC(=O)CN1c2cccc(-c3cccc(OC(F)(F)F)c3)c2OC[C@@H]1c1cccc(OC(F)(F)C(F)F)c1: No
O[C@@H](CN1c2cccc(-c3cc(F)c(F)c(F)c3)c2OC[C@@H]1c1cccc(OC(F)(F)F)c1)C(F)(F)F: Yes
COc1cccc(C2COc3c(-c4cccc(OC(F)(F)F)c4)cccc3N2CC(O)C(F)(F)F)c1 (mixture of isomers): No

Form field: inhibition at least 30%? Entry: OC(CN1c2cccc(-c3cccc(OC(F)(F)F)c3)c2OCC1c1cccc(OC(F)(F)F)c1)C(F)(F)F (mixture of isomers)
Yes

Moving on to O[C@@H](CN1c2cccc(-c3cc(F)cc(F)c3)c2OC[C@@H]1c1cccc(OC(F)(F)C(F)F)c1)C(F)(F)F
Yes

And what about the compound C[C@@H](O)CN1c2cccc(-c3cccc(OC(F)(F)F)c3)c2OC[C@@H]1c1cccc(OC(F)(F)C(F)F)c1 ?
No

====

# ASSAY_SYSTEM: UniProt:P11597
# TEST_SUMMARY: Inhibition of cholesteryl ester transfer protein in human plasma by [3H]CE HDL assay
# Format: cell-free
METRIC: IC50 (µM)
Numbers only, in µM.

Any idea what IC50 was measured for O[C@@H](CN1c2cccc(-c3cccc(OC(F)(F)F)c3)c2OC[C@@H]1c1cccc(OC(F)(F)C(F)F)c1)C(F)(F)F ?
1

====

# ASSAY_SYSTEM: Cholesteryl ester transfer protein (Homo sapiens) (UniProt P11597)
# TEST_SUMMARY: Inhibition of human cholesteryl ester transfer protein at 1 uM by scintillation proximity assay
// map inhibition onto a label; ranges lower bin = under 20%, middle bin = from 20% up to 60%, upper bin = 60% and over

Class label required: CCOc1cccc(C2COc3c(-c4cccc(OC(F)(F)F)c4)cccc3N2CC(O)C(F)(F)F)c1 (mixture of isomers)
middle bin

Now the molecule CCCN1c2cccc(-c3cccc(OC(F)(F)F)c3)c2OCC1c1cccc(OC(F)(F)C(F)F)c1 (racemic)
middle bin

Same for O[C@H](CN1c2cccc(-c3cccc(OC(F)(F)F)c3)c2OC[C@@H]1c1cccc(OC(F)(F)C(F)F)c1)C(F)(F)F
middle bin

Request: O[C@@H](CN1c2cccc(-c3cccc(OC(F)(F)F)c3)c2OC[C@@H]1c1cccc(OC(F)(F)C(F)F)c1)C(F)(F)F
upper bin

OC(CN1c2cccc(-c3cccc(OC(F)(F)F)c3)c2OCC1c1ccc(OC(F)(F)C(F)F)cc1)C(F)(F)F (mixture of isomers) ?
middle bin

Moving on to OC(CN1c2cccc(-c3cccc(OC(F)(F)F)c3)c2OCC1c1cccc(Cl)c1)C(F)(F)F (mixture of isomers)
upper bin

Further, for OCCCN1c2cccc(-c3cccc(OC(F)(F)F)c3)c2OCC1c1cccc(OC(F)(F)C(F)F)c1 (racemic) ?
lower bin

What do you get for OC(CN1c2cccc(-c3cccc(OC(F)(F)F)c3)c2OCC1c1ccccc1OC(F)(F)C(F)F)C(F)(F)F (mixture of isomers) ?
lower bin

====

# TEST_SUMMARY: Volume of distribution at steady state in rat at 10 mg/kg, po and 2 mg/kg, iv
# Assay type: ADME, organism-based
# STATED_CONDITIONS: in vivo, read-out: Vdss
METRIC: Vd
Include the unit right after the number.

Which Vd reading was recorded for the compound O[C@@H](CN1c2cccc(-c3cccc(OC(F)(F)F)c3)c2OC[C@@H]1c1cccc(OC(F)(F)C(F)F)c1)C(F)(F)F ?
0.73 L/kg

====

# ASSAY_SYSTEM: Cholesteryl ester transfer protein (Homo sapiens)
# Sequence (whole entry): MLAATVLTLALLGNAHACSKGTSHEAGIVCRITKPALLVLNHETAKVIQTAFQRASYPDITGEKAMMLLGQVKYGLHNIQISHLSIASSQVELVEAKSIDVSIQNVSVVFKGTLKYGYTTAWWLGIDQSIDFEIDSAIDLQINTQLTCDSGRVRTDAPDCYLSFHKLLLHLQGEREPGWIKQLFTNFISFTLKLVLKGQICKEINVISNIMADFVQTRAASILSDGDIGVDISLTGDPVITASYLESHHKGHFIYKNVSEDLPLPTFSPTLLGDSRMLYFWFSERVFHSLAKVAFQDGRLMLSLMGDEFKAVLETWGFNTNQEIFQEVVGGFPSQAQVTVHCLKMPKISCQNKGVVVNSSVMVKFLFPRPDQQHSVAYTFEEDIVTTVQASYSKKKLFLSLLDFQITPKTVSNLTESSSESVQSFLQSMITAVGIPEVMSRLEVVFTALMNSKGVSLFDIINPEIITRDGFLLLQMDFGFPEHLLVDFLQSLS
# TEST_SUMMARY: Inhibition of human cholesteryl ester transfer protein at 1 uM by scintillation proximity assay
METRIC: inhibition (%)
One number for each entry, in %.

FC(F)C(F)(F)Oc1cccc(C2COc3c(-c4cccc(OC(F)(F)F)c4)cccc3N2CCN2CCOCC2)c1 (racemic): 0

For the 4 compounds below, give their inhibition values.
1. OC(CN1c2cccc(-c3cccc(OC(F)(F)F)c3)c2OCC1c1cccc(SC(F)(F)F)c1)C(F)(F)F (mixture of isomers)
2. CC(C)(O)CN1c2cccc(-c3cccc(OC(F)(F)F)c3)c2OCC1c1cccc(OC(F)(F)C(F)F)c1 (racemic)
3. CC1(C)OC[C@@H](CN2c3cccc(-c4cccc(OC(F)(F)F)c4)c3OC[C@@H]2c2cccc(OC(F)(F)C(F)F)c2)O1 (mixture of isomers)
4. O[C@@H](CN1c2cccc(-c3cc(C(F)(F)F)cc(C(F)(F)F)c3)c2OC[C@@H]1c1cccc(OC(F)(F)C(F)F)c1)C(F)(F)F

[68, 29, 25, 59]
